- target under test: Serine/threonine-protein kinase pim-2 (Homo sapiens)
- Sequence (Q9P1W9 whole entry): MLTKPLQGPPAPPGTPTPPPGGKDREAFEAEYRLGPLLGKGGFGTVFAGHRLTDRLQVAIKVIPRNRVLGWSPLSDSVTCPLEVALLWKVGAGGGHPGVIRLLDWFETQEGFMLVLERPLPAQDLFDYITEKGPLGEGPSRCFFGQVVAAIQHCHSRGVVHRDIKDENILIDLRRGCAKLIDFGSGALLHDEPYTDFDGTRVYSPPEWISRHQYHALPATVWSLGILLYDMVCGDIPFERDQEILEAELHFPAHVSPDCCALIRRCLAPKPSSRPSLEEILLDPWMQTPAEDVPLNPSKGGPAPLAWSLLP
- test summary: Inhibition of human recombinant PIM2 by radiometric kinase assay
pIC50: −log10 of the molar value.
measurement kind: pIC50

In: Request body: readout pIC50, system Serine/threonine-protein kinase pim-2 (Homo sapiens), query `CN1CCN(c2ccc(Nc3ncc4nc(Nc5ccccc5)n(C5CCCC5)c4n3)cc2)CC1` . Return the value.
Out: < 5.00

* * *

- test summary: Inhibition of human recombinant PKA by radiometric kinase assay
measurement kind: pIC50
Kindly note that pIC50 refers to -log10 of the concentration in mol/L and answer with the value alone.

In: What pIC50 value was documented for this compound, `CN1CCN(c2ccc(Nc3ncc4nc(Nc5ccccc5)n(C5CCCC5)c4n3)cc2)CC1` ?
Out: 5.96

* * *

- test summary: Inhibition of human recombinant CK1 by radiometric kinase assay
measurement kind: IC50

In: Any idea what its IC50 is? The compound is `CN1CCN(c2ccc(Nc3ncc4nc(Nc5ccccc5)n(C5CCCC5)c4n3)cc2)CC1`
Out: > 10 µM

* * *

- target under test: Mitogen-activated protein kinase 12 (Homo sapiens, UniProt P53778)
- Sequence (P53778 whole entry): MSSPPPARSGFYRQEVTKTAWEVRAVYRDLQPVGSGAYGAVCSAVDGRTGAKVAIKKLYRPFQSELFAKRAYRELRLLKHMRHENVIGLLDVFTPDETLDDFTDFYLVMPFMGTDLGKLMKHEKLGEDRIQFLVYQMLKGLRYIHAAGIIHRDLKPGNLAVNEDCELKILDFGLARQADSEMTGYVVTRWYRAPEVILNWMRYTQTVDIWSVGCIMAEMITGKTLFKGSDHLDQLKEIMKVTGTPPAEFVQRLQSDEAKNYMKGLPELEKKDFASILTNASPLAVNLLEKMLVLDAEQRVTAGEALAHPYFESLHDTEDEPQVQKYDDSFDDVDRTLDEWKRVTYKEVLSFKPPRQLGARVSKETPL
- test summary: Inhibition of human recombinant p38gamma by radiometric kinase assay
pIC50: −log10 of the molar value.
measurement kind: pIC50

In: # lookup: pIC50 of `CN1CCN(c2ccc(Nc3ncc4nc(Nc5ccccc5)n(C5CCCC5)c4n3)cc2)CC1`
Out: < 5.00

* * *

- target under test: Insulin-like growth factor 1 receptor (Homo sapiens)
- test summary: Inhibition of human recombinant IGF1R by radiometric kinase assay
pIC50: −log10 of the molar value.
measurement kind: pIC50

In: Name the recorded pIC50 for `CN1CCN(c2ccc(Nc3ncc4nc(Nc5ccccc5)n(C5CCCC5)c4n3)cc2)CC1` .
Out: < 5.00

* * *

- target under test: Insulin receptor (Homo sapiens, UniProt P06213)
- test summary: Inhibition of human recombinant INSR by radiometric kinase assay
measurement kind: IC50

In: Which IC50 value belongs to `CN1CCN(c2ccc(Nc3ncc4nc(Nc5ccccc5)n(C5CCCC5)c4n3)cc2)CC1` ?
Out: > 10 µM

* * *

- test summary: Half life in Sprague-Dawley rat at 20 mg/kg, po
- Format: ADME, organism-based
- Set-up: dose 20 mg/kg, route oral
- condition parameters: in vivo
measurement kind: half-life (h)
Please respond with the number in h and leave the unit unwritten.

In: Quick one: half-life of `CN1CCN(c2ccc(Nc3ncc4nc(Nc5ccccc5)n(C5CCCC5)c4n3)cc2)CC1` ?
Out: 4.86

* * *

- target under test: Glycogen synthase kinase-3 beta (Homo sapiens)
- Sequence (P49841 whole entry): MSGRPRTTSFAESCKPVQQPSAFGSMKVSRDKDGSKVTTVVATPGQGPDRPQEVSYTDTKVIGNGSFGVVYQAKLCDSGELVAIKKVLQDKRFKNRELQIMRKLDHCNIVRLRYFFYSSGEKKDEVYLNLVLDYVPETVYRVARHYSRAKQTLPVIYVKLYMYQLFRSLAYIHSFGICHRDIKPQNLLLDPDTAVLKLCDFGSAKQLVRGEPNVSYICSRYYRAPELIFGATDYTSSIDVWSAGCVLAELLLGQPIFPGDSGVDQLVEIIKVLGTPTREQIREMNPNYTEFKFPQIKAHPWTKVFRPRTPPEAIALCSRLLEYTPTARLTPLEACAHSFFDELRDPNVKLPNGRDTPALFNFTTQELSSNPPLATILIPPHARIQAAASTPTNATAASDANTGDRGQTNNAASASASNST
- test summary: Inhibition of human recombinant GSK3beta by radiometric kinase assay
pIC50: −log10 of the molar value.
measurement kind: pIC50

In: Entry under review: `CN1CCN(c2ccc(Nc3ncc4nc(Nc5ccccc5)n(C5CCCC5)c4n3)cc2)CC1` . Reported pIC50?
Out: < 5.00

* * *

Please respond with reported IC50 for every item in the list.
- Tested on: NCI-H1975
- test summary: Cytotoxicity against human NCI-H1975 cells incubated for 72 hrs by MTT assay
- Format: functional, cell-based
- condition parameters: NCI-H1975, 72 h
Quick reminder: number only, in nM, skip the unit.

In: Hello, I am looking for reported IC50 with NCI-H1975 for `CN1CCN(c2ccc(Nc3ncc4nc(Nc5ccccc5)n(C5CC5)c4n3)cc2)CC1` . Could you help?
Out: 2860

In: Param item: `OCCNc1ccc(Nc2ncc3nc(Nc4ccccc4)n(C4CCCC4)c3n2)cc1`
Out: 2810

In: Next: `CN1CCN(c2ccc(Nc3ncc4nc(Nc5cccc(O)c5)n(C5CCCC5)c4n3)cc2)CC1`
Out: 1020

In: Queued: `CN1CCN(c2ccc(Nc3ncc4nc(Nc5ccccc5)n(C5CCCCC5)c4n3)cc2)CC1`
Out: 390

* * *

- target under test: Mitogen-activated protein kinase 9 (Homo sapiens, UniProt P45984)
- Sequence (P45984 whole entry): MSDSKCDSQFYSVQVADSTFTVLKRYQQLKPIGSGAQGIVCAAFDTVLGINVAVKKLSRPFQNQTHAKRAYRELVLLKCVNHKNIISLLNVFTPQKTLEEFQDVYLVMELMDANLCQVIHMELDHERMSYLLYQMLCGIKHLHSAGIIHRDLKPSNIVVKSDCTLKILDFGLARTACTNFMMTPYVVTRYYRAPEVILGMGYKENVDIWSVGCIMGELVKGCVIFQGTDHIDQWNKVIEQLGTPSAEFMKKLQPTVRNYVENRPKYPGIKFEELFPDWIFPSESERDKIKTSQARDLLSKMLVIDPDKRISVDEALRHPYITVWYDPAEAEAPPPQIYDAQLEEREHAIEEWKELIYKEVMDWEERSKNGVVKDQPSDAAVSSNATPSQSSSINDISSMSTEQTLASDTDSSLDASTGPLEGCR
- test summary: Inhibition of human recombinant JNK2 by radiometric kinase assay
measurement kind: pIC50
Quick note: pIC50 values are minus log10 of concentrations in mol/L.

In: Record request: pIC50 value, item `CN1CCN(c2ccc(Nc3ncc4nc(Nc5ccccc5)n(C5CCCC5)c4n3)cc2)CC1`
Out: 5.82

* * *

- Test system: NCI-H1975
- test summary: Cytotoxicity against human NCI-H1975 cells incubated for 72 hrs by MTT assay
- Type: functional, cell-based
- condition parameters: NCI-H1975, 72 h
measurement kind: IC50 (nM)
Field format: number, assumed nM, no unit text.

In: Recorded IC50 of `CC1CCN(c2ccc(Nc3ncc4nc(Nc5ccccc5)n(C5CCCC5)c4n3)cc2)CC1` , please.
Out: 9800

In: For `CN1CCN(c2ccc(Nc3ncc4nc(Nc5cc(Cl)ccc5Cl)n(C5CCCC5)c4n3)cc2)CC1` then?
Out: 2540

In: Here is the next compound: `CN1CCN(c2ccc(Nc3ncc4nc(Nc5cccc(NC(=O)c6ccccc6)c5)n(C5CCCC5)c4n3)cc2)CC1`
Out: 2120

In: Please give the result for `Cc1cccc(Nc2nc3cnc(Nc4ccc(N5CCN(C)CC5)cc4)nc3n2C2CCCC2)c1` too.
Out: 560

In: Continue with `CN1CCN(c2ccc(Nc3ncc4nc(Nc5ccccc5)n(C5CCCC5)c4n3)cc2)CC1`
Out: 360

In: Field entry: `CN1CCN(c2ccc(Nc3ncc4nc(Nc5ccccc5)n(C)c4n3)cc2)CC1`
Out: 6060

In: Check `C#Cc1cccc(Nc2nc3cnc(Nc4ccc(N5CCN(C)CC5)cc4)nc3n2C2CCCC2)c1` too.
Out: 650

In: And the next one, `CC(C)n1c(Nc2ccccc2)nc2cnc(Nc3ccc(N4CCN(C)CC4)cc3)nc21` ?
Out: 960

* * *

- target under test: Mitogen-activated protein kinase 14 (Homo sapiens)
- test summary: Inhibition of human recombinant p38alpha by radiometric kinase assay
measurement kind: pIC50
pIC50 is a log-scale quantity: -log10 of the concentration expressed in molar.

In: If you can, please state the reported pIC50 value of `CN1CCN(c2ccc(Nc3ncc4nc(Nc5ccccc5)n(C5CCCC5)c4n3)cc2)CC1` .
Out: 6.64

* * *

- System: NCI-H1975
- test summary: Cytotoxicity against human NCI-H1975 cells incubated for 72 hrs by MTT assay
- Assay type: functional, cell-based
- condition parameters: NCI-H1975, 72 h
Task for the reader: assign each of the following molecules its reported IC50.
Give your result in nM as a bare value.

In: # value lookup — system NCI-H1975, readout IC50, item `CC(=O)Nc1ccc(Nc2ncc3nc(Nc4ccccc4)n(C4CCCC4)c3n2)cc1`
Out: 1210

In: Now the molecule `CN1CCN(c2ccc(Nc3ncc4nc(Nc5ccccc5)[nH]c4n3)cc2)CC1`
Out: 18100

In: And what about the molecule `CN1CCN(c2ccc(Nc3ncc4nc(Nc5cccc(C(=O)Nc6ccc(Cl)cc6)c5)n(C5CCCC5)c4n3)cc2)CC1` ?
Out: 4010

In: Moving on to the next molecule: `Cc1cc(C)cc(-n2c(Nc3ccccc3)nc3cnc(Nc4ccc(N5CCN(C)CC5)cc4)nc32)c1`
Out: 1910

In: Repeat for the following molecule: `CN1CCN(c2ccc(Nc3ncc4nc(Nc5cccc(Cl)c5)n(C5CCCC5)c4n3)cc2)CC1`
Out: 390

* * *

- target under test: Tyrosine-protein kinase JAK1 (Homo sapiens)
- test summary: Inhibition of human recombinant JAK1 by radiometric kinase assay
measurement kind: pIC50
Worth noting: pIC50 values are minus log10 of concentrations stated in mol/L.

In: // pIC50 lookup, key: `CN1CCN(c2ccc(Nc3ncc4nc(Nc5ccccc5)n(C5CCCC5)c4n3)cc2)CC1`
Out: 5.48

* * *

- target under test: Macrophage-stimulating protein receptor (Homo sapiens, UniProt Q04912)
- Sequence (Q04912 25-304 limits assumed): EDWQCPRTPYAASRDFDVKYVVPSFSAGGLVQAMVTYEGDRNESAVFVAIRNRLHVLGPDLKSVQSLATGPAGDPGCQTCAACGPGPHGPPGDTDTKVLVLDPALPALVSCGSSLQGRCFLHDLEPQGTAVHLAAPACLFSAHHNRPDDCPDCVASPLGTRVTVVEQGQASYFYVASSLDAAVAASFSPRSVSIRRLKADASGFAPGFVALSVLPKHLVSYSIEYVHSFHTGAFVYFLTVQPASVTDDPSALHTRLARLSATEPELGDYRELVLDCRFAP
- Sequence (Q04912 310-1400 limits assumed): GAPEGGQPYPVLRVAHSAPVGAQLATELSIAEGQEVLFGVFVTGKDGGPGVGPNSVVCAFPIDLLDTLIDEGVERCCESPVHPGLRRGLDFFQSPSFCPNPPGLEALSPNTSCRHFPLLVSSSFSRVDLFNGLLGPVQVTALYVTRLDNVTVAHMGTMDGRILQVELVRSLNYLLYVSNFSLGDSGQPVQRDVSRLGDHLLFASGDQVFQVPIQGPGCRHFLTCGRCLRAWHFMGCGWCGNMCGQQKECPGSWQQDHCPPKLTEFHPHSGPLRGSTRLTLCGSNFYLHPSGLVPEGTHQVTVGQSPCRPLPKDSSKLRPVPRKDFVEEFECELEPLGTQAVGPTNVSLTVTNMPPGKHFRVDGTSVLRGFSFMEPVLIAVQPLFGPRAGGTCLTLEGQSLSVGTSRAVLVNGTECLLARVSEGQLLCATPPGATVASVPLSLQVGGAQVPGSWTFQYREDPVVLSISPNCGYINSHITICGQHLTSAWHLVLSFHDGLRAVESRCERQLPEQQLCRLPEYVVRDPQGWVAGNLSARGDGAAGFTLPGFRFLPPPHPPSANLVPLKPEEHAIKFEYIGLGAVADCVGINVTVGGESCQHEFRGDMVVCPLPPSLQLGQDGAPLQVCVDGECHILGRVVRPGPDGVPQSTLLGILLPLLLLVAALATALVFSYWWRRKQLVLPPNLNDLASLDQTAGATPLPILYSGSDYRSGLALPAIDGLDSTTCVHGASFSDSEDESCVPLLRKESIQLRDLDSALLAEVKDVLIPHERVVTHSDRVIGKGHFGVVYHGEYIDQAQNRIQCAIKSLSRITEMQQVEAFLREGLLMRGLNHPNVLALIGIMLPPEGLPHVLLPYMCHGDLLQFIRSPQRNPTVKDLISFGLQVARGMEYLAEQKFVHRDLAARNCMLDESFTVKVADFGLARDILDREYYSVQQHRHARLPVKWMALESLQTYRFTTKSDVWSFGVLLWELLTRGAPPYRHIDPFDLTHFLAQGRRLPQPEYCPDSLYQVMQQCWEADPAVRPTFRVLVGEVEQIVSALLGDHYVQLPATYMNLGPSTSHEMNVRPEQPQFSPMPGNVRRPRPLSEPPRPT
- test summary: Inhibition of human recombinant MST1R by radiometric kinase assay
pIC50: −log10 of the molar value.
measurement kind: pIC50

In: Quick one: pIC50 for `CN1CCN(c2ccc(Nc3ncc4nc(Nc5ccccc5)n(C5CCCC5)c4n3)cc2)CC1` ?
Out: < 5.00

* * *

- target under test: Rho-associated protein kinase 2 (Homo sapiens)
- Sequence (O75116 whole entry): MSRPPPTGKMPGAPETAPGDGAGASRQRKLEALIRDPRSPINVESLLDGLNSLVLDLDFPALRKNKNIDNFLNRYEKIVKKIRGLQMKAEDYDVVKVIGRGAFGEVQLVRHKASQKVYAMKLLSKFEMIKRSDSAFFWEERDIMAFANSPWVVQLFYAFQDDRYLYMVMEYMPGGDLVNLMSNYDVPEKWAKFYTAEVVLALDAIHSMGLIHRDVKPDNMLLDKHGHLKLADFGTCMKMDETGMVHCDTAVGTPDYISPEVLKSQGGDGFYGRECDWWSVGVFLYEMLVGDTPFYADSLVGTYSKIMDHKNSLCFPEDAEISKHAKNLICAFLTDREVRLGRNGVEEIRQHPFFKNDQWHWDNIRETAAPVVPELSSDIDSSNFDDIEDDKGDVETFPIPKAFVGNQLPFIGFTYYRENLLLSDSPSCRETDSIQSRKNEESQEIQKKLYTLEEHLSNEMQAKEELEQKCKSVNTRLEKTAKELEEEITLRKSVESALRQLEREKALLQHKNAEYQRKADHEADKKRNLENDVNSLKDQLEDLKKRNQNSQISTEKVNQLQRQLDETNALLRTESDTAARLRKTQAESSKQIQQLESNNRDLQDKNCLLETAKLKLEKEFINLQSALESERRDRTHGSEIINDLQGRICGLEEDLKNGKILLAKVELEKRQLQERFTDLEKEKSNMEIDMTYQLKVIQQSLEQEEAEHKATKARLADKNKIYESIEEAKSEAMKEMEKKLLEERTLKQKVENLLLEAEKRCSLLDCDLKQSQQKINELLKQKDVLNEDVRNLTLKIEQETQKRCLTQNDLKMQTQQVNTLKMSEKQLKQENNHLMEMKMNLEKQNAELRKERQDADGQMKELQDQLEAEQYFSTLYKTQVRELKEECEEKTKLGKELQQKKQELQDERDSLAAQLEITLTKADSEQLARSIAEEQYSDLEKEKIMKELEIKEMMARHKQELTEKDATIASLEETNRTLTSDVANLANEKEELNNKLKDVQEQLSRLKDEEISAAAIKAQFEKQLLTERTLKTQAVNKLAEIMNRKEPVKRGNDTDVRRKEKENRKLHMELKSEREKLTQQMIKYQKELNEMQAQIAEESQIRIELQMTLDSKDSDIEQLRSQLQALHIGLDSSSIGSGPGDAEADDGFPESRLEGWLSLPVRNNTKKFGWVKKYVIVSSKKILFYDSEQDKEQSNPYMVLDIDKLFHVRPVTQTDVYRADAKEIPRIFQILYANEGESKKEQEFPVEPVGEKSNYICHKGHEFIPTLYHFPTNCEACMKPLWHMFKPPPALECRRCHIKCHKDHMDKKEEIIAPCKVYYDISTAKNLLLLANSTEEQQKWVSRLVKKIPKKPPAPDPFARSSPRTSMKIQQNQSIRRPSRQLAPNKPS
- test summary: Inhibition of human recombinant ROCK2 by radiometric kinase assay
pIC50: −log10 of the molar value.
measurement kind: pIC50

In: Look at this compound and give its reported pIC50. `CN1CCN(c2ccc(Nc3ncc4nc(Nc5ccccc5)n(C5CCCC5)c4n3)cc2)CC1`
Out: < 5.00

* * *

- target under test: UniProt:P12931
- Sequence (P12931 2-536 limits assumed): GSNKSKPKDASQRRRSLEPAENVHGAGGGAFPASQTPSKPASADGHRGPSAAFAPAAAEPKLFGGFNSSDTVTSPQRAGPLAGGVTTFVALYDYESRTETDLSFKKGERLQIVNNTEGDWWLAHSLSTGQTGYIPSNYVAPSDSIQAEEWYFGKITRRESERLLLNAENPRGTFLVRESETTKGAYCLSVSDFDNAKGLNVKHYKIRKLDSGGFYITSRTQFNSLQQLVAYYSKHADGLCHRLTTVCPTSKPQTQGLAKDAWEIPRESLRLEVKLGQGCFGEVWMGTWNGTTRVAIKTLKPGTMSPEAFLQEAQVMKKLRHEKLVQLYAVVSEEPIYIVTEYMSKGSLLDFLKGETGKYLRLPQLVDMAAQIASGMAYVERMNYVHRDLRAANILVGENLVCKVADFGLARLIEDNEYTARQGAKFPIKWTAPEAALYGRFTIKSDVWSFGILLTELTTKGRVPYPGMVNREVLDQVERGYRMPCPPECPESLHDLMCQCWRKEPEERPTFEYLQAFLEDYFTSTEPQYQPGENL
- test summary: Inhibition of human recombinant SRC by radiometric kinase assay
measurement kind: IC50 (µM)
Form entry: value (µM) — number only.

In: Request: IC50, test system UniProt:P12931, entry `CN1CCN(c2ccc(Nc3ncc4nc(Nc5ccccc5)n(C5CCCC5)c4n3)cc2)CC1`
Out: 0.29

* * *

- test summary: Cmax in Sprague-Dawley rat at 20 mg/kg, po
- Format: ADME, organism-based
- Set-up: dose 20 mg/kg, route oral
- condition parameters: in vivo
measurement kind: Cmax (ng/mL)
Please respond with the number in ng/mL and leave the unit unwritten.

In: What Cmax value was documented for this compound, `CN1CCN(c2ccc(Nc3ncc4nc(Nc5ccccc5)n(C5CCCC5)c4n3)cc2)CC1` ?
Out: 230

Origin of measurements: ChEMBL document CHEMBL2177100
